Numbers sourced from paper PMC10384408.

- assay.info: Solubility in PBS (1% DMSO)
- Type: physicochemical
Classes by Solubility in PBS (1% DMSO): class 1 = under 200 µg/mL, class 2 = from 200 µg/mL up to 400 µg/mL, class 3 = 400 µg/mL and over

Consider the worked cases shown below.
| test.smiles | category |
| --- | --- |
| Cc1c([O-])c(=O)ccn1C.F[P-](F)(F)(F)(F)F.[W+4].c1cc[cH-]c1.c1cc[cH-]c1 | class 3 |
| CCc1occc(=S)c1[O-].F[P-](F)(F)(F)(F)F.[W+4].c1cc[cH-]c1.c1cc[cH-]c1 | class 2 |
| Cc1occc(=S)c1[O-].F[P-](F)(F)(F)(F)F.[W+4].c1cc[cH-]c1.c1cc[cH-]c1 | class 2 |

Inquiry: Band assignment needed for CCc1occc(=O)c1[O-].F[P-](F)(F)(F)(F)F.[W+4].c1cc[cH-]c1.c1cc[cH-]c1 please.
Reply text: class 3

Inquiry: Which bin should I file Cc1occc(=O)c1[O-].[Cl-].[W+4].c1cc[cH-]c1.c1cc[cH-]c1 under?
Reply text: class 3

Inquiry: # bin label for F[P-](F)(F)(F)(F)F.O=C([O-])c1ccccn1.[W+4].c1cc[cH-]c1.c1cc[cH-]c1
Reply text: class 1

Inquiry: Class label required: Cc1occc(=O)c1[O-].F[P-](F)(F)(F)(F)F.[W+4].c1cc[cH-]c1.c1cc[cH-]c1
Reply text: class 2

Inquiry: Which of the defined bands does the recorded Solubility in PBS (1% DMSO) of Cc1cc(=O)c([O-])co1.F[P-](F)(F)(F)(F)F.[W+4].c1cc[cH-]c1.c1cc[cH-]c1 sit within?
Reply text: class 2

Inquiry: # bin label for F[P-](F)(F)(F)(F)F.[O-]c1c(-c2ccc(Cl)cc2)oc2ccccc2c1=S.[W+4].c1cc[cH-]c1.c1cc[cH-]c1
Reply text: class 1

Inquiry: // bin(item) where item = F[P-](F)(F)(F)(F)F.O=c1c([O-])c(-c2ccc(Cl)cc2)oc2ccccc12.[W+4].c1cc[cH-]c1.c1cc[cH-]c1
Reply text: class 1

###

- System: HCT116 cells
- assay.info: Annexin V-FITC/PI apoptosis assay, HCT116
- Format: cell-based, human
- measurement.setup: HCT116, 24 h, 200 µM
For each of the compounds below, state its early apoptotic cells [%] AV+ / PI-.
One number for each entry, in %.

| compound | readout.unit | val |
| --- | --- | --- |
| Cc1occc(=S)c1[O-].F[P-](F)(F)(F)(F)F.[W+4].c1cc[cH-]c1.c1cc[cH-]c1 [Compound 2] | % | 7.2 |
| Cc1c([O-])c(=O)ccn1C.F[P-](F)(F)(F)(F)F.[W+4].c1cc[cH-]c1.c1cc[cH-]c1 [Compound 6] | % | 5.0 |

Shifting focus to the compound that follows.
Inquiry: Query: early apoptotic cells [%] AV+ / PI-; subject: CCc1occc(=S)c1[O-].F[P-](F)(F)(F)(F)F.[W+4].c1cc[cH-]c1.c1cc[cH-]c1 [Compound 10]
Reply text: 3.8

###

- Test system: MCF-7 cells
- assay.info: Annexin V-FITC/PI apoptosis assay, MCF-7
- measurement.setup: MCF-7, 24 h, 200 µM
endpoint: early apoptotic cells [%] AV+ / PI- (%)
Answers are plain numbers, in %.

Known early apoptotic cells [%] AV+ / PI- results, listed for orientation:
| compound | endpoint | val |
| --- | --- | --- |
| Cc1occc(=S)c1[O-].F[P-](F)(F)(F)(F)F.[W+4].c1cc[cH-]c1.c1cc[cH-]c1 [Compound 2] | early apoptotic cells [%] AV+ / PI- | 7.4 |
| F[P-](F)(F)(F)(F)F.O=C([O-])c1ccccn1.[W+4].c1cc[cH-]c1.c1cc[cH-]c1 [Compound 5] | early apoptotic cells [%] AV+ / PI- | 1.3 |
| Cc1occc(=O)c1[O-].[Cl-].[W+4].c1cc[cH-]c1.c1cc[cH-]c1 [Compound 1A] | early apoptotic cells [%] AV+ / PI- | 1.1 |
| Cc1c([O-])c(=O)ccn1C.F[P-](F)(F)(F)(F)F.[W+4].c1cc[cH-]c1.c1cc[cH-]c1 [Compound 6] | early apoptotic cells [%] AV+ / PI- | 1.4 |

Proceed to the following item.
Inquiry: So what does the record say about early apoptotic cells [%] AV+ / PI- for CCc1occc(=O)c1[O-].F[P-](F)(F)(F)(F)F.[W+4].c1cc[cH-]c1.c1cc[cH-]c1 [Compound 9] ?
Reply text: 1.6

###

- System: HCT116 multicellular tumor spheroids
- assay.info: Resazurin assay, HCT116 3D spheroids
- Format: cell-based, human
- measurement.setup: 96 h, spheroids
For each entry below, report its IC50 value.

Some solved cases for reference:
| test.smiles | IC50 |
| --- | --- |
| Cc1c([O-])c(=O)ccn1C.F[P-](F)(F)(F)(F)F.[W+4].c1cc[cH-]c1.c1cc[cH-]c1 | > 200 µM |
| Cc1occc(=O)c1[O-].[Cl-].[W+4].c1cc[cH-]c1.c1cc[cH-]c1 | > 200 µM |

--- query ---
Inquiry: So what IC50 did Cc1cc(=O)c([O-])co1.F[P-](F)(F)(F)(F)F.[W+4].c1cc[cH-]c1.c1cc[cH-]c1 get with HCT116 multicellular tumor spheroids?
Reply text: > 200 µM
